Numbers sourced from patent US12351580B2.

Below is a list of entries, each paired with its recorded log10(EC50) value.
- test system: hNLRP3 (Homo sapiens)
- Construct: THP-1 cells were purchased from the American Type Culture Collection
- measurement description: Measurement of IL-1β production in PMA-differentiated THP-1 cells (hNLRP3 agonist; ELISA, alternative and hTRF procedures)
readout name: log10(EC50) (log10 of the value in µM)

CCN(C(C)=O)C(C)c1nc2c(N)nc3cc(Br)ccc3c2[nH]1 (centres unmarked) [Compound 182] | 0.77
CC(=O)NCc1nc2c(N)nc3ccccc3c2[nH]1 [Compound 233] | 2.08
CCN(Cc1nc2c(N)nc3cc(Cl)c(Cl)cc3c2[nH]1)C(C)=O [Compound 159] | 1.41
CCN(Cc1nc2c(N)nc3cc(-c4ccn[nH]4)ccc3c2n1CC)C(C)=O [Compound 474] | 0.08
Nc1nc2cc(-c3cccs3)ccc2c2c1nc(CN1CCCC1=O)n2CCO [Compound 469] | -0.17
COc1ccc(Cn2c(CN3C(=O)OCC3c3ccccc3)nc3c(N)nc4cc(-c5cc[nH]n5)ccc4c32)cc1 (centres unmarked) [Compound 409] | 0.37
CCN(Cc1nc2c(N)nc3cc(-c4cc[nH]n4)ccc3c2[nH]1)C(=O)c1cccnc1 [Compound 438] | 0.62
CCNCc1nc2c(N)nc3cc(-c4cccs4)ccc3c2n1CC [Compound 468] | 0.32

* * *

- test system: hNLRP3 (Homo sapiens, UniProt Q96P20)
- Construct: THP-1 cells were purchased from the American Type Culture Collection
- Sequence (Q96P20 whole entry): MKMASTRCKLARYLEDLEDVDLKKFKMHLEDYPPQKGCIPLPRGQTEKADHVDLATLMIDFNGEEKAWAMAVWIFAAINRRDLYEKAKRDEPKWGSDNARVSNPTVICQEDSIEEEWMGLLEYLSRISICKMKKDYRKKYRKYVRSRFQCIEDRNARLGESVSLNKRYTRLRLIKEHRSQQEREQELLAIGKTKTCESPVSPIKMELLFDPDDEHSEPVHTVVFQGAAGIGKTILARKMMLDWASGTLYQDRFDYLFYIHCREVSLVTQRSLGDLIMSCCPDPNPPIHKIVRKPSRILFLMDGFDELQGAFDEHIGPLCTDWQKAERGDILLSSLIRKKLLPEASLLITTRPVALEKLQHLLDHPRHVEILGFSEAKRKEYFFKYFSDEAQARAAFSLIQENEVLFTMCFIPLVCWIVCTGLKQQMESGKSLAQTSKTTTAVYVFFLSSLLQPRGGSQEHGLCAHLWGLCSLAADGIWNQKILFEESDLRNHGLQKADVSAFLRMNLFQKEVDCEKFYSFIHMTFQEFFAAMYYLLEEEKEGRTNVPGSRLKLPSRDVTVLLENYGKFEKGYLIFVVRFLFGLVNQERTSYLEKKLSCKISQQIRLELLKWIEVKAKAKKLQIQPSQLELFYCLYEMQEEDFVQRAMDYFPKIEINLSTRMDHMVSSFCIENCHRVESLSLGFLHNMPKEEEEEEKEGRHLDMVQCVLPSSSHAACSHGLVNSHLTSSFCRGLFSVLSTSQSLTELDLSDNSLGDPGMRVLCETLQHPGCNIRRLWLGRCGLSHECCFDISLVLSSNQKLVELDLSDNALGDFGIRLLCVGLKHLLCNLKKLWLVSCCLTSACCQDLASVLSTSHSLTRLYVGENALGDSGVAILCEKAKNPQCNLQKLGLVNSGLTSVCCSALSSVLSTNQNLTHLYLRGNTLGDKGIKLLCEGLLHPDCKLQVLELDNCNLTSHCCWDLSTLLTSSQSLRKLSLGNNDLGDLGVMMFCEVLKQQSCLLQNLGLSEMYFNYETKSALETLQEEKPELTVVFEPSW
- measurement description: Measurement of IL-1β production in PMA-differentiated THP-1 cells (hNLRP3 agonist; ELISA, alternative and hTRF procedures)
pEC50: −log10 of the molar value.
Below is a list of entries, each paired with its recorded pEC50 value.
readout name: pEC50

CCN(CC)C(=O)N(CC)Cc1nc2c(N)nc3cc(-c4cc[nH]n4)ccc3c2[nH]1 [Compound 454] | 6.13
CCN(Cc1nc2c(N)nc3cc(-c4cc[nH]n4)ccc3c2[nH]1)C(=O)N(C)C [Compound 110] | 6.05
CCN(Cc1nc2c(N)nc3cc(-c4cc[nH]n4)ccc3c2[nH]1)C(=O)OC [Compound 406] | 5.86
CCN(Cc1nc2c(N)nc3cc(-c4cc[nH]n4)ccc3c2[nH]1)C(=O)OC(C)(C)C [Compound 109] | 6.06
CCN(Cc1nc2c(N)nc3cc(Br)ccc3c2n1CCCC(=O)N1CCN(C)CC1)C(C)=O [Compound 209] | 4.66
COC(=O)CCCn1c(CN(C)C(C)=O)nc2c(N)nc3ccccc3c21 [Compound 188] | 5.24
CCN(C)Cc1nc2c(N)nc3cc(-c4cc[nH]n4)ccc3c2[nH]1 [Compound 349] | 6.22
CCN(Cc1nc2c(N)nc3cc(-c4cccs4)ccc3c2[nH]1)C(=O)OC(C)(C)C [Compound 424] | 6.10
Nc1nc2cc(-c3cc[nH]n3)ccc2c2[nH]c(CN3CC(c4ccccc4)CC3=O)nc12 (centres unmarked) [Compound 137] | 5.27
CCN(Cc1nc2c(N)nc3cc(C(F)(F)F)ccc3c2n1CCCC(=O)OC)C(C)=O [Compound 229] | 4.91
Nc1nc2cc(-n3cccn3)ccc2c2[nH]c(CN3CCCCC3=O)nc12 [Compound 423] | 6.21
